These measurements were taken from paper PMC9007951.

test: Timed organ biodistribution of [^64Cu]Cu-DOTATATE by ex vivo gamma counting; assay type: in vivo, mice; conditions: mouse, large intestine, intravenous, 1.85 MBq, total radioactivity; female Apoe^-/- mice 12 weeks on Western Diet, 120 min after injection, median (IQR), N=3-8; read-out: Tissue radioactivity, large intestine
reportedMetric: tissue uptake at 2 h

tissue uptake at 2 h recorded for this compound, C[C@@H](O)[C@H](NC(=O)[C@@H]1CSSC[C@H](NC(=O)[C@@H](Cc2ccccc2)NC(=O)CN2CCN(CC(=O)O)CCN(CC(=O)O)CCN(CC(=O)O)CC2)C(=O)N[C@@H](Cc2ccc(O)cc2)C(=O)N[C@H](Cc2c[nH]c3ccccc23)C(=O)N[C@@H](CCCCN)C(=O)N[C@@H]([C@@H](C)O)C(=O)N1)C(=O)O [[^64Cu]Cu-DOTATATE, metal not drawn] , is 3.8 %ID/g

----------
assay: Timed organ biodistribution of [^64Cu]Cu-DOTATATE by ex vivo gamma counting; type: in vivo, mice; details: mouse, bone marrow, intravenous, 1.85 MBq, total radioactivity; female Apoe^-/- mice 12 weeks on Western Diet, 5 min after injection, median (IQR), N=3-8; read-out: Tissue radioactivity, bone marrow
reportedMetric: tissue uptake at 5 min

So, C[C@@H](O)[C@H](NC(=O)[C@@H]1CSSC[C@H](NC(=O)[C@@H](Cc2ccccc2)NC(=O)CN2CCN(CC(=O)O)CCN(CC(=O)O)CCN(CC(=O)O)CC2)C(=O)N[C@@H](Cc2ccc(O)cc2)C(=O)N[C@H](Cc2c[nH]c3ccccc23)C(=O)N[C@@H](CCCCN)C(=O)N[C@@H]([C@@H](C)O)C(=O)N1)C(=O)O [[^64Cu]Cu-DOTATATE, metal not drawn] ? Its tissue uptake at 5 min was 2.3 %ID/g

----------
assay: Timed organ biodistribution of [^64Cu]Cu-DOTATATE by ex vivo gamma counting; assay type: in vivo, mice; details: mouse, fat, intravenous, 1.85 MBq, total radioactivity; female C57BL/6 mice, 120 min after injection, median (IQR), N=3-7; read-out: Tissue radioactivity, fat
reportedMetric: tissue uptake at 2 h (%ID/g)
The reply should contain only the number, in %ID/g.

Reported tissue uptake at 2 h ( C[C@@H](O)[C@H](NC(=O)[C@@H]1CSSC[C@H](NC(=O)[C@@H](Cc2ccccc2)NC(=O)CN2CCN(CC(=O)O)CCN(CC(=O)O)CCN(CC(=O)O)CC2)C(=O)N[C@@H](Cc2ccc(O)cc2)C(=O)N[C@H](Cc2c[nH]c3ccccc23)C(=O)N[C@@H](CCCCN)C(=O)N[C@@H]([C@@H](C)O)C(=O)N1)C(=O)O [[^64Cu]Cu-DOTATATE, metal not drawn] ) = 0.2

----------
test: Timed organ biodistribution of [^64Cu]Cu-DOTATATE by ex vivo gamma counting; format: in vivo, mice; details: mouse, liver, intravenous, 1.85 MBq, total radioactivity; female Apoe^-/- mice 12 weeks on Western Diet, 1 min after injection, median (IQR), N=3-8; read-out: Tissue radioactivity, liver
reportedMetric: tissue uptake at 1 min (%ID/g)
Number only, in %ID/g; omit the unit.

// field: tissue uptake at 1 min; key: C[C@@H](O)[C@H](NC(=O)[C@@H]1CSSC[C@H](NC(=O)[C@@H](Cc2ccccc2)NC(=O)CN2CCN(CC(=O)O)CCN(CC(=O)O)CCN(CC(=O)O)CC2)C(=O)N[C@@H](Cc2ccc(O)cc2)C(=O)N[C@H](Cc2c[nH]c3ccccc23)C(=O)N[C@@H](CCCCN)C(=O)N[C@@H]([C@@H](C)O)C(=O)N1)C(=O)O [[^64Cu]Cu-DOTATATE, metal not drawn] ; value = 4.4

----------
Test: Timed organ biodistribution of [^64Cu]Cu-DOTATATE by ex vivo gamma counting
Assay type: in vivo, mice
Conditions: mouse, lymph node, intravenous, 1.85 MBq, total radioactivity; female Apoe^-/- mice 12 weeks on Western Diet, 15 min after injection, median (IQR), N=3-8; read-out: Tissue radioactivity, lymph node
Description: Wild-type and atherosclerotic animals were injected with approximately 1.85 MBq of [^64Cu]Cu-DOTATATE and euthanized at either 1, 5, 15, 30, 60 or 120 min after injection (Supplementary Fig. S1A) to evaluate the tracer’s biodistribution. […] Values were corrected for decay and normalized to tissue weight to express radioactivity concentration as percentage injected dose per gram (%ID/g). […] Plasma (supernatant) and cells (pellet) were gamma counted and expressed as percentage of total activity. […]
reportedMetric: tissue uptake at 0.25 h (%ID/g)
Give just the numeric value; %ID/g need not be written.

Query C[C@@H](O)[C@H](NC(=O)[C@@H]1CSSC[C@H](NC(=O)[C@@H](Cc2ccccc2)NC(=O)CN2CCN(CC(=O)O)CCN(CC(=O)O)CCN(CC(=O)O)CC2)C(=O)N[C@@H](Cc2ccc(O)cc2)C(=O)N[C@H](Cc2c[nH]c3ccccc23)C(=O)N[C@@H](CCCCN)C(=O)N[C@@H]([C@@H](C)O)C(=O)N1)C(=O)O [[^64Cu]Cu-DOTATATE, metal not drawn] yields tissue uptake at 0.25 h of 3

----------
assay: Timed organ biodistribution of [^64Cu]Cu-DOTATATE by ex vivo gamma counting; type: in vivo, mice; settings: mouse, bladder, intravenous, 1.85 MBq, total radioactivity; female Apoe^-/- mice 12 weeks on Western Diet, 60 min after injection, median (IQR), N=3-8; read-out: Tissue radioactivity, bladder
reportedMetric: tissue uptake at 1 h (%ID/g)
A number alone suffices; assume %ID/g.

For reference, reported tissue uptake at 1 h for C[C@@H](O)[C@H](NC(=O)[C@@H]1CSSC[C@H](NC(=O)[C@@H](Cc2ccccc2)NC(=O)CN2CCN(CC(=O)O)CCN(CC(=O)O)CCN(CC(=O)O)CC2)C(=O)N[C@@H](Cc2ccc(O)cc2)C(=O)N[C@H](Cc2c[nH]c3ccccc23)C(=O)N[C@@H](CCCCN)C(=O)N[C@@H]([C@@H](C)O)C(=O)N1)C(=O)O [[^64Cu]Cu-DOTATATE, metal not drawn] stands at 4.7

----------
assay: Timed organ biodistribution of [^64Cu]Cu-DOTATATE by ex vivo gamma counting; format: in vivo, mice; conditions: mouse, tail, intravenous, 1.85 MBq, total radioactivity; female C57BL/6 mice, 120 min after injection, median (IQR), N=3-7; read-out: Tissue radioactivity, tail
reportedMetric: tissue uptake at 2 h (%ID/g)
Write it as a number; the unit %ID/g goes unstated.

tissue uptake at 2 h for C[C@@H](O)[C@H](NC(=O)[C@@H]1CSSC[C@H](NC(=O)[C@@H](Cc2ccccc2)NC(=O)CN2CCN(CC(=O)O)CCN(CC(=O)O)CCN(CC(=O)O)CC2)C(=O)N[C@@H](Cc2ccc(O)cc2)C(=O)N[C@H](Cc2c[nH]c3ccccc23)C(=O)N[C@@H](CCCCN)C(=O)N[C@@H]([C@@H](C)O)C(=O)N1)C(=O)O [[^64Cu]Cu-DOTATATE, metal not drawn] is 0.6

----------
test: Organ biodistribution of [^68Ga]Ga-DOTATATE by ex vivo gamma counting; format: in vivo, New Zealand White rabbits; conditions: male, New Zealand White, rabbit, bladder, intravenous, 190 MBq, total radioactivity, male athero4mo rabbits, 200 min after tracer injection, median (IQR), N = 9; read-out: Tissue radioactivity, bladder
reportedMetric: tissue uptake at 200 min (%ID/g)
The figure you give is taken to be in %ID/g; do not add the unit.

The value of tissue uptake at 200 min measured for the compound C[C@@H](O)[C@H](NC(=O)[C@@H]1CSSC[C@H](NC(=O)[C@@H](Cc2ccccc2)NC(=O)CN2CCN(CC(=O)O)CCN(CC(=O)O)CCN(CC(=O)O)CC2)C(=O)N[C@@H](Cc2ccc(O)cc2)C(=O)N[C@H](Cc2c[nH]c3ccccc23)C(=O)N[C@@H](CCCCN)C(=O)N[C@@H]([C@@H](C)O)C(=O)N1)C(=O)O [[^68Ga]Ga-DOTATATE, metal not drawn] turned out to be 0.075

----------
assay: Organ biodistribution of [^68Ga]Ga-DOTATATE by ex vivo gamma counting; type: in vivo, New Zealand White rabbits; conditions: male, New Zealand White, rabbit, muscle, iv, 190 MBq, total radioactivity, male control rabbits, 200 min after tracer injection, median (IQR), N = 6; read-out: Tissue radioactivity, muscle
reportedMetric: tissue uptake at 200 min
Your answer should be a number followed by the unit of measure.

Query C[C@@H](O)[C@H](NC(=O)[C@@H]1CSSC[C@H](NC(=O)[C@@H](Cc2ccccc2)NC(=O)CN2CCN(CC(=O)O)CCN(CC(=O)O)CCN(CC(=O)O)CC2)C(=O)N[C@@H](Cc2ccc(O)cc2)C(=O)N[C@H](Cc2c[nH]c3ccccc23)C(=O)N[C@@H](CCCCN)C(=O)N[C@@H]([C@@H](C)O)C(=O)N1)C(=O)O [[^68Ga]Ga-DOTATATE, metal not drawn] yields tissue uptake at 200 min of 0.001 %ID/g
